tested on: PIP tumor and PC3 tumor; test: Biodistribution of 125I labeled compounds 17, 18, 26 and 27 in tumor bearing nude mice; type: in vivo; conditions: 1 h
REPORTED_ENDPOINT: Biodistribution: Bone (% ID/g)
Write the answer as a number in % ID/g, unit excluded.

O=C(O)CC[C@H](NC(=O)N[C@@H](CCCCNC(=O)[C@H](Cc1ccccc1)NC(=O)COc1ccc(C[C@H](NC(=O)[C@H](CCC(=O)O)NC(=O)[C@H](CCC(=O)O)NC(=O)c2ccc([125I])cc2)C(=O)O)cc1)C(=O)O)C(=O)O [[^125I]27]    0.94
O=C(O)CC[C@H](NC(=O)N[C@@H](CCCCNC(=O)[C@H](Cc1ccccc1)NC(=O)[C@H](CCC(=O)O)NC(=O)c1ccc([125I])cc1)C(=O)O)C(=O)O [[^125I]17]    0.16
O=C(O)CC[C@H](NC(=O)N[C@@H](CCCCNC(=O)[C@H](Cc1ccccc1)NC(=O)COc1ccc(C[C@H](NC(=O)[C@H](CCC(=O)O)NC(=O)c2ccc([125I])cc2)C(=O)O)cc1)C(=O)O)C(=O)O [[^125I]26]    0.48

Below: the item to evaluate.
IN: Dear colleague, please send me the reported Biodistribution: Bone for O=C(O)CC[C@H](NC(=O)N[C@@H](CCCCNC(=O)[C@H](Cc1ccccc1)NC(=O)[C@H](CCC(=O)O)NC(=O)[C@H](CCC(=O)O)NC(=O)c1ccc([125I])cc1)C(=O)O)C(=O)O [[^125I]18] when you can.
OUT: 0.89

* * *

tested on: PIP tumor and PC3 tumor; experiment: Biodistribution of 125I labeled compounds 17, 18, 26 and 27 in tumor bearing nude mice; assay type: in vivo; settings: 1 h
Documented Biodistribution: PIP tumor across a set of compounds
Express the result in % ID/g but write the number alone.

O=C(O)CC[C@H](NC(=O)N[C@@H](CCCCNC(=O)[C@H](Cc1ccccc1)NC(=O)[C@H](CCC(=O)O)NC(=O)[C@H](CCC(=O)O)NC(=O)c1ccc([125I])cc1)C(=O)O)C(=O)O [[^125I]18]    13.29
O=C(O)CC[C@H](NC(=O)N[C@@H](CCCCNC(=O)[C@H](Cc1ccccc1)NC(=O)COc1ccc(C[C@H](NC(=O)[C@H](CCC(=O)O)NC(=O)c2ccc([125I])cc2)C(=O)O)cc1)C(=O)O)C(=O)O [[^125I]26]    26.19
O=C(O)CC[C@H](NC(=O)N[C@@H](CCCCNC(=O)[C@H](Cc1ccccc1)NC(=O)[C@H](CCC(=O)O)NC(=O)c1ccc([125I])cc1)C(=O)O)C(=O)O [[^125I]17]    10.72

API: the following record is the query input.
IN: Fill in Biodistribution: PIP tumor for record O=C(O)CC[C@H](NC(=O)N[C@@H](CCCCNC(=O)[C@H](Cc1ccccc1)NC(=O)COc1ccc(C[C@H](NC(=O)[C@H](CCC(=O)O)NC(=O)[C@H](CCC(=O)O)NC(=O)c2ccc([125I])cc2)C(=O)O)cc1)C(=O)O)C(=O)O [[^125I]27]
OUT: 17.19

* * *

tested on: PIP tumor and PC3 tumor; experiment: Biodistribution of 125I labeled compounds 17, 18, 26 and 27 in tumor bearing nude mice; assay type: in vivo; conditions: 1 h
REPORTED_ENDPOINT: Biodistribution: Heart (% ID/g)
Express your answer in % ID/g, writing the number without its unit.

IN: Supply recorded Biodistribution: Heart for O=C(O)CC[C@H](NC(=O)N[C@@H](CCCCNC(=O)[C@H](Cc1ccccc1)NC(=O)COc1ccc(C[C@H](NC(=O)[C@H](CCC(=O)O)NC(=O)c2ccc([125I])cc2)C(=O)O)cc1)C(=O)O)C(=O)O [[^125I]26] here.
OUT: 0.73

IN: Report Biodistribution: Heart, nothing else, for this compound: O=C(O)CC[C@H](NC(=O)N[C@@H](CCCCNC(=O)[C@H](Cc1ccccc1)NC(=O)[C@H](CCC(=O)O)NC(=O)c1ccc([125I])cc1)C(=O)O)C(=O)O [[^125I]17]
OUT: 0.29

IN: Determine its reported Biodistribution: Heart: O=C(O)CC[C@H](NC(=O)N[C@@H](CCCCNC(=O)[C@H](Cc1ccccc1)NC(=O)[C@H](CCC(=O)O)NC(=O)[C@H](CCC(=O)O)NC(=O)c1ccc([125I])cc1)C(=O)O)C(=O)O [[^125I]18]
OUT: 3.06

IN: Supply measured Biodistribution: Heart of O=C(O)CC[C@H](NC(=O)N[C@@H](CCCCNC(=O)[C@H](Cc1ccccc1)NC(=O)COc1ccc(C[C@H](NC(=O)[C@H](CCC(=O)O)NC(=O)[C@H](CCC(=O)O)NC(=O)c2ccc([125I])cc2)C(=O)O)cc1)C(=O)O)C(=O)O [[^125I]27] in your reply.
OUT: 2.60

* * *

test system: PIP tumor and PC3 tumor; test: Biodistribution of 125I labeled compounds 17, 18, 26 and 27 in tumor bearing nude mice; format: in vivo; conditions: 4 h
REPORTED_ENDPOINT: Biodistribution: Muscle (% ID/g)
Only the number, expressed in % ID/g, is required.

Some solved entries appear below for comparison.
O=C(O)CC[C@H](NC(=O)N[C@@H](CCCCNC(=O)[C@H](Cc1ccccc1)NC(=O)COc1ccc(C[C@H](NC(=O)[C@H](CCC(=O)O)NC(=O)c2ccc([125I])cc2)C(=O)O)cc1)C(=O)O)C(=O)O [[^125I]26]    0.30
O=C(O)CC[C@H](NC(=O)N[C@@H](CCCCNC(=O)[C@H](Cc1ccccc1)NC(=O)[C@H](CCC(=O)O)NC(=O)c1ccc([125I])cc1)C(=O)O)C(=O)O [[^125I]17]    0.25
O=C(O)CC[C@H](NC(=O)N[C@@H](CCCCNC(=O)[C@H](Cc1ccccc1)NC(=O)COc1ccc(C[C@H](NC(=O)[C@H](CCC(=O)O)NC(=O)[C@H](CCC(=O)O)NC(=O)c2ccc([125I])cc2)C(=O)O)cc1)C(=O)O)C(=O)O [[^125I]27]    0.69

For the next question, use this compound.
IN: Annotate the compound O=C(O)CC[C@H](NC(=O)N[C@@H](CCCCNC(=O)[C@H](Cc1ccccc1)NC(=O)[C@H](CCC(=O)O)NC(=O)[C@H](CCC(=O)O)NC(=O)c1ccc([125I])cc1)C(=O)O)C(=O)O [[^125I]18] with its measured Biodistribution: Muscle.
OUT: 0.69

* * *

tested on: PIP tumor and PC3 tumor; experiment: Biodistribution of 125I labeled compounds 17, 18, 26 and 27 in tumor bearing nude mice; assay type: in vivo; settings: 4 h, ratio
In this section we review reported PIP/blood values for a set of compounds.
Please give only the number in your answer, with no unit.

Examples from the recorded data:
O=C(O)CC[C@H](NC(=O)N[C@@H](CCCCNC(=O)[C@H](Cc1ccccc1)NC(=O)COc1ccc(C[C@H](NC(=O)[C@H](CCC(=O)O)NC(=O)[C@H](CCC(=O)O)NC(=O)c2ccc([125I])cc2)C(=O)O)cc1)C(=O)O)C(=O)O [[^125I]27]    58.93
O=C(O)CC[C@H](NC(=O)N[C@@H](CCCCNC(=O)[C@H](Cc1ccccc1)NC(=O)[C@H](CCC(=O)O)NC(=O)[C@H](CCC(=O)O)NC(=O)c1ccc([125I])cc1)C(=O)O)C(=O)O [[^125I]18]    50.29
O=C(O)CC[C@H](NC(=O)N[C@@H](CCCCNC(=O)[C@H](Cc1ccccc1)NC(=O)[C@H](CCC(=O)O)NC(=O)c1ccc([125I])cc1)C(=O)O)C(=O)O [[^125I]17]    62.95

Now look at this one.
IN: State recorded PIP/blood with PIP tumor and PC3 tumor, entry O=C(O)CC[C@H](NC(=O)N[C@@H](CCCCNC(=O)[C@H](Cc1ccccc1)NC(=O)COc1ccc(C[C@H](NC(=O)[C@H](CCC(=O)O)NC(=O)c2ccc([125I])cc2)C(=O)O)cc1)C(=O)O)C(=O)O [[^125I]26] , no comment.
OUT: 104.80

* * *

system: PIP tumor and PC3 tumor; assay: Biodistribution of 125I labeled compounds 17, 18, 26 and 27 in tumor bearing nude mice; assay type: in vivo; conditions: 4 h
Biodistribution: PC3 tumor listing for selected molecules.
Your reply should be a number followed by the unit it is expressed in.

// solved cases for Biodistribution: PC3 tumor follow
O=C(O)CC[C@H](NC(=O)N[C@@H](CCCCNC(=O)[C@H](Cc1ccccc1)NC(=O)[C@H](CCC(=O)O)NC(=O)[C@H](CCC(=O)O)NC(=O)c1ccc([125I])cc1)C(=O)O)C(=O)O [[^125I]18]    1.20 ± 0.52 % ID/g
O=C(O)CC[C@H](NC(=O)N[C@@H](CCCCNC(=O)[C@H](Cc1ccccc1)NC(=O)COc1ccc(C[C@H](NC(=O)[C@H](CCC(=O)O)NC(=O)[C@H](CCC(=O)O)NC(=O)c2ccc([125I])cc2)C(=O)O)cc1)C(=O)O)C(=O)O [[^125I]27]    1.67 ± 0.44 % ID/g
O=C(O)CC[C@H](NC(=O)N[C@@H](CCCCNC(=O)[C@H](Cc1ccccc1)NC(=O)COc1ccc(C[C@H](NC(=O)[C@H](CCC(=O)O)NC(=O)c2ccc([125I])cc2)C(=O)O)cc1)C(=O)O)C(=O)O [[^125I]26]    1.37 ± 0.45 % ID/g

# ---- query molecule ----
IN: Give reported Biodistribution: PC3 tumor value for O=C(O)CC[C@H](NC(=O)N[C@@H](CCCCNC(=O)[C@H](Cc1ccccc1)NC(=O)[C@H](CCC(=O)O)NC(=O)c1ccc([125I])cc1)C(=O)O)C(=O)O [[^125I]17]
OUT: 0.28 ± 0.10 % ID/g
